All values here come from paper PMC9927415.

Entries annotated with measured inhibition at 10 µM
- SYSTEM: panel of 203 kinases (Homo sapiens, UniProt Q7KZI7)
- Construct: purchased DiscoverX (KINOMEscan)
- Sequence (Q7KZI7 whole entry): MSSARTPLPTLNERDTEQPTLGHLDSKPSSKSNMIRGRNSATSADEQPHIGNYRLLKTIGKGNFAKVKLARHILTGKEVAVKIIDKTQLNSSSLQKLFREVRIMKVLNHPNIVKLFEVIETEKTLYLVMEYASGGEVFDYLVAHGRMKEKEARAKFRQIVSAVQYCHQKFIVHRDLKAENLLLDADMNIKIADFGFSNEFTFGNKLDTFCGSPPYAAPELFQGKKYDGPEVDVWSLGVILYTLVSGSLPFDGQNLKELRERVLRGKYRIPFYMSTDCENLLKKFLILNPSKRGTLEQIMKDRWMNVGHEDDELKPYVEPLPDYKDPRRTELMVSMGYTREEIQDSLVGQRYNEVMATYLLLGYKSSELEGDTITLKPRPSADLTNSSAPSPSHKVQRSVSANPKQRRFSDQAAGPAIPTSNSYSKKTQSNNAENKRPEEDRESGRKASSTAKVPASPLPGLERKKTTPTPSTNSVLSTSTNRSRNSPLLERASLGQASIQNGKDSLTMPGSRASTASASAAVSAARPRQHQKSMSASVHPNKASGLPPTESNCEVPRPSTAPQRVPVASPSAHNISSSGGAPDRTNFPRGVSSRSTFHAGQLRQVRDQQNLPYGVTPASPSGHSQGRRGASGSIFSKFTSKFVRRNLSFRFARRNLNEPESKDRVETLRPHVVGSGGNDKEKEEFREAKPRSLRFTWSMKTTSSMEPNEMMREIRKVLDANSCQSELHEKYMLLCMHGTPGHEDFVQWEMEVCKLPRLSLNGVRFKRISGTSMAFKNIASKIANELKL
- MEASUREMENT PROTOCOL: KINOMEscan competitive binding, whole panel
- REPORTED CONDITIONS: 10 µM, n=1; kinase MARK2; read-out: Percent inhibition MARK2

CN1CCN(c2ccc(Nc3nccc(-c4cnn5ncccc45)n3)cc2C#N)CC1 [Compound 1]    92%

// COc1cc(Nc2nccc(-c3sc(N)nc3-c3cccc(NC(=O)c4c(F)cccc4F)c3)n2)cc(OC)c1OC [Compound 7] : inhibition at 10 µM value = 73.7%

// Clc1ccc(Nc2ncc(-c3ccccc3)s2)cc1 [Compound 10] : inhibition at 10 µM value = 0%

// Cc1ccc(O)cc1N(C)c1ccnc(Nc2cccc(S(N)(=O)=O)c2)n1 [Compound 4] : inhibition at 10 µM value = 66%

// c1ccc(COc2cccc(-c3ccnc4[nH]ccc34)c2)cc1 [Compound 9] : inhibition at 10 µM value = 0%

----------
Entries annotated with measured inhibition at 10 µM
- SYSTEM: panel of 203 kinases (Homo sapiens, UniProt P78368)
- Construct: purchased DiscoverX (KINOMEscan)
- Sequence (P78368 whole entry): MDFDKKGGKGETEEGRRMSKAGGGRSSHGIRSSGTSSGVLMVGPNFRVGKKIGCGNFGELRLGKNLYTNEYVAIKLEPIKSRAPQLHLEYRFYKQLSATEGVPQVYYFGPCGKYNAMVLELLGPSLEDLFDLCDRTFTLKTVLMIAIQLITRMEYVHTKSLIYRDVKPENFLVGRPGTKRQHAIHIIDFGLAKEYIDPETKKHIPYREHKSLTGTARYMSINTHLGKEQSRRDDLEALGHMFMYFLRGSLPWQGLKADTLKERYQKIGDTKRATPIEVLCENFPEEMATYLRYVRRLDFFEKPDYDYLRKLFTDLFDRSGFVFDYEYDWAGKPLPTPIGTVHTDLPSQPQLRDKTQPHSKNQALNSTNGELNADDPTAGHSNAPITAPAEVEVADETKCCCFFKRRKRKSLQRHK
- MEASUREMENT PROTOCOL: KINOMEscan competitive binding, whole panel
- REPORTED CONDITIONS: 10 µM, n=1; kinase CSNK1G2; read-out: Percent inhibition CSNK1G2
# output: number + unit

CN1CCN(c2ccc(Nc3nccc(-c4cnn5ncccc45)n3)cc2C#N)CC1    88.3%
COc1ccc(Nc2nccc(-c3cnn4ncccc34)n2)cc1    93.6%
C[C@@H](Oc1cc(-c2cnc3ccccn23)sc1C(N)=O)c1ccccc1Cl    0%
COc1cc(Nc2nccc(-c3sc(N)nc3-c3cccc(NC(=O)c4c(F)cccc4F)c3)n2)cc(OC)c1OC    0%
c1ccc(COc2cccc(-c3ccnc4[nH]ccc34)c2)cc1    0%
Cc1ccc(O)cc1Nc1ccnc(Nc2cccc(C(N)=O)c2)n1    93.3%
Clc1ccc(Nc2ncc(-c3ccccc3)s2)cc1    0%
Nc1ncc2c(-c3ccncc3)c[nH]c2n1    89.7%

// Fc1cccc(COc2ccc(Nc3ncnc4c3CN(CCN3CCOCC3)CC4)cc2Cl)c1 : inhibition at 10 µM value = 0%

// Cc1ccc(O)cc1N(C)c1ccnc(Nc2cccc(S(N)(=O)=O)c2)n1 : inhibition at 10 µM value = 75.8%

----------
- SYSTEM: SNF1LK2 (Homo sapiens)
- Construct: purchased DiscoverX (KINOMEscan)
- Sequence (Q9H0K1 whole entry): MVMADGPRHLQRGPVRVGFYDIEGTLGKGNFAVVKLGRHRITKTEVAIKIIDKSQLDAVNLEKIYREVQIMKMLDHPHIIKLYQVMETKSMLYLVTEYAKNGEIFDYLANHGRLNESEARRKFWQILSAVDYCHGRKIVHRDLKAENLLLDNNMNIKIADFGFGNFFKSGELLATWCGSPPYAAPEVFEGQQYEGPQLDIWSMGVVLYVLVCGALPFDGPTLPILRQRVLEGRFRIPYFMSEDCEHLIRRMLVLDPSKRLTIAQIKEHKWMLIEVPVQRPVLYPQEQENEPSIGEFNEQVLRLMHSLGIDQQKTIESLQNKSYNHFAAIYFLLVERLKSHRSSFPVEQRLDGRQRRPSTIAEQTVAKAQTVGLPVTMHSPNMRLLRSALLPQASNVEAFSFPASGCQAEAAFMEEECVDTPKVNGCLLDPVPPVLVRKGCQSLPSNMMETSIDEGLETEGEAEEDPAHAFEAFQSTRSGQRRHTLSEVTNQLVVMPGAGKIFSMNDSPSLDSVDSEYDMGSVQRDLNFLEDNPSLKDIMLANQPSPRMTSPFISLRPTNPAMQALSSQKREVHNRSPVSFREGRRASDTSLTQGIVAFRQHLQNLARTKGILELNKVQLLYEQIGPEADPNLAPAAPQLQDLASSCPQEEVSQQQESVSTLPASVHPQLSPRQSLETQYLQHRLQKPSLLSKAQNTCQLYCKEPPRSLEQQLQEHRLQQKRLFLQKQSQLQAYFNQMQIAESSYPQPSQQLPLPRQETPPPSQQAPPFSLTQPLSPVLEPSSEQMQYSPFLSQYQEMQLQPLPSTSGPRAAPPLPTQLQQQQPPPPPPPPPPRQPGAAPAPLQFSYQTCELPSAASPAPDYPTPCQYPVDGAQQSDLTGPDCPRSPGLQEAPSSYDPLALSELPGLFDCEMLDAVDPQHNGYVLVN
- MEASUREMENT PROTOCOL: KINOMEscan competitive binding
- REPORTED CONDITIONS: n=1, read-out: Percent inhibition, SNF1LK2
QUANTITY KIND: inhibition at 10 µM (%)
Record the value in %, omitting the unit from your answer.

c1ccc(COc2cccc(-c3ccnc4[nH]ccc34)c2)cc1    0

# ---- query molecule ----
Simply: COc1ccc(Nc2nccc(-c3cnn4ncccc34)n2)cc1 , SNF1LK2 (Homo sapiens), inhibition at 10 µM = 0

----------
- SYSTEM: KDR (VEGFR2) (Homo sapiens)
- Construct: purchased DiscoverX (KINOMEscan)
- Sequence (P35968 20-1356): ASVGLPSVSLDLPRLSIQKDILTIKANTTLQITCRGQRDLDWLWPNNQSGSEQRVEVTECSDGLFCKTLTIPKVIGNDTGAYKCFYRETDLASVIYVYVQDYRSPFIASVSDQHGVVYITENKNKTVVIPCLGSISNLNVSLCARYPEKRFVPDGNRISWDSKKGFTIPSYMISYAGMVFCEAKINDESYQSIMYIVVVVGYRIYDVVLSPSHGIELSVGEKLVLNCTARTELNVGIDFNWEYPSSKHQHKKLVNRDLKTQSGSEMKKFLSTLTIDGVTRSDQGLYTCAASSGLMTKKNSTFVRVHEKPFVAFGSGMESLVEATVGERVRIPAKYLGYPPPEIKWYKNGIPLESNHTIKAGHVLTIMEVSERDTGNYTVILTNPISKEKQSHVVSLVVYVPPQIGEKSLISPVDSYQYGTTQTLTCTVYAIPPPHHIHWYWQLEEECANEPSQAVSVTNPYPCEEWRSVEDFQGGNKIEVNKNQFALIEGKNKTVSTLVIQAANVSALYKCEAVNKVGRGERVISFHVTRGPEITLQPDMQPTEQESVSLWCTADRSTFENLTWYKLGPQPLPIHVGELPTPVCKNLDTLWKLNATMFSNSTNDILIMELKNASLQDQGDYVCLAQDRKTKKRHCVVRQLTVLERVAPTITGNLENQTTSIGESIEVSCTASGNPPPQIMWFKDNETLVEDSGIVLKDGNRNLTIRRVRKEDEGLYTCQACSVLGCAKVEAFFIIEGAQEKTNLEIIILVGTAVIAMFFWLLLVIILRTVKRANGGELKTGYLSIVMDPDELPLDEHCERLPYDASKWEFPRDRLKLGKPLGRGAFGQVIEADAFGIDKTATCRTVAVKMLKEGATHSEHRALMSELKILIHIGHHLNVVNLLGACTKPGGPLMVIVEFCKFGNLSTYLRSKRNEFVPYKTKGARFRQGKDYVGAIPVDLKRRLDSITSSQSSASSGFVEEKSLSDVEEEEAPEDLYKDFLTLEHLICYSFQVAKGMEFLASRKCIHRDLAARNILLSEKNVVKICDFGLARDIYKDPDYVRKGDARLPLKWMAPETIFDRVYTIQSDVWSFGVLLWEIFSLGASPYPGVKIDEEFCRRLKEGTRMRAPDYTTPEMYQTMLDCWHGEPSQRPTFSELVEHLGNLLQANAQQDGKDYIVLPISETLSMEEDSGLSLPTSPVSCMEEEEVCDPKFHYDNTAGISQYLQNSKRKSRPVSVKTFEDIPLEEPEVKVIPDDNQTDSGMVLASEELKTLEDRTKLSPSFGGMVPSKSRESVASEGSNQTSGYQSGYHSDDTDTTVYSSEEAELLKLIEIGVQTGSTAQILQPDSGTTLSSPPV
- MEASUREMENT PROTOCOL: KINOMEscan competitive binding
- REPORTED CONDITIONS: KINOMEscan, 10 µM, n=1; read-out: Percent inhibition, VEGFR2
- Source text: The kinases were expressed as fusions to T7 bacteriophage. This is a sensitive, competitive binding assay where test compounds were used to displace immobilized ATP-site binding probe ligands from kinases of interest. The amount of kinase that remained bound to the immobilized probe ligands on the solid support was quantified. Percentage inhibition data were was plotted on kinome trees using the web-based tool KinMap (http://www.kinhub.org/kinmap) ([60]).
QUANTITY KIND: inhibition at 10 µM (%)
Record the value in %, omitting the unit from your answer.

# count of solved cases: 4
Clc1ccc(Nc2ncc(-c3ccccc3)s2)cc1 [Compound 10]    0
Nc1ncc2c(-c3ccncc3)c[nH]c2n1 [Compound 11]    0
C[C@@H](Oc1cc(-c2cnc3ccccn23)sc1C(N)=O)c1ccccc1Cl [Compound 8]    0
Cc1ccc(O)cc1N(C)c1ccnc(Nc2cccc(S(N)(=O)=O)c2)n1 [Compound 4]    83.7

# ---- query compound ----
Simply: CN1CCN(c2ccc(Nc3nccc(-c4cnn5ncccc45)n3)cc2C#N)CC1 [Compound 1] , KDR (VEGFR2) (Homo sapiens), inhibition at 10 µM = 100

----------
Entries annotated with measured inhibition at 10 µM
- SYSTEM: panel of 203 kinases (Homo sapiens)
- Construct: purchased DiscoverX (KINOMEscan)
- MEASUREMENT PROTOCOL: KINOMEscan competitive binding, whole panel
- REPORTED CONDITIONS: 10 µM, n=1; kinase INSR; read-out: Percent inhibition INSR
Record the value in %, omitting the unit from your answer.

# count of solved cases: 5
Nc1ncc2c(-c3ccncc3)c[nH]c2n1    0
Cc1ccc(O)cc1Nc1ccnc(Nc2cccc(C(N)=O)c2)n1    0
COc1cc(Nc2nccc(-c3sc(N)nc3-c3cccc(NC(=O)c4c(F)cccc4F)c3)n2)cc(OC)c1OC    97.3
CN1CCN(c2ccc(Nc3nccc(-c4cnn5ncccc45)n3)cc2C#N)CC1    94.3
COc1ccc(Nc2nccc(-c3cnn4ncccc34)n2)cc1    76.9

// c1ccc(COc2cccc(-c3ccnc4[nH]ccc34)c2)cc1 : inhibition at 10 µM value = 0

// Clc1ccc(Nc2ncc(-c3ccccc3)s2)cc1 : inhibition at 10 µM value = 0

// Cc1ccc(O)cc1N(C)c1ccnc(Nc2cccc(S(N)(=O)=O)c2)n1 : inhibition at 10 µM value = 0

// C[C@@H](Oc1cc(-c2cnc3ccccn23)sc1C(N)=O)c1ccccc1Cl : inhibition at 10 µM value = 0

// Fc1cccc(COc2ccc(Nc3ncnc4c3CN(CCN3CCOCC3)CC4)cc2Cl)c1 : inhibition at 10 µM value = 0

----------
Entries annotated with measured inhibition at 10 µM
- SYSTEM: panel of 203 kinases (Homo sapiens, UniProt O94768)
- Construct: purchased DiscoverX (KINOMEscan)
- Sequence (O94768 whole entry): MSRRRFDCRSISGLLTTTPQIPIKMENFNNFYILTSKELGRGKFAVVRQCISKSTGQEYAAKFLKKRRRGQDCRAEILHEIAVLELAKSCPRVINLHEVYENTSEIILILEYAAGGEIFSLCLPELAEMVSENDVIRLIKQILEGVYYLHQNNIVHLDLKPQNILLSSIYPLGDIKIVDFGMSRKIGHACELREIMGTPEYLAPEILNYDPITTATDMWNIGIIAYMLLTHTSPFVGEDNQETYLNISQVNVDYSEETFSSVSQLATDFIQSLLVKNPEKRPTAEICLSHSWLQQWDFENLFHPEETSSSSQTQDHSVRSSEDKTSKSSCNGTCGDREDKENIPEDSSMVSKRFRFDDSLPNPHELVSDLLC
- MEASUREMENT PROTOCOL: KINOMEscan competitive binding, whole panel
- REPORTED CONDITIONS: 10 µM, n=1; kinase DRAK2; read-out: Percent inhibition DRAK2
Record the value in %, omitting the unit from your answer.

# count of solved cases: 4
COc1cc(Nc2nccc(-c3sc(N)nc3-c3cccc(NC(=O)c4c(F)cccc4F)c3)n2)cc(OC)c1OC    0
Nc1ncc2c(-c3ccncc3)c[nH]c2n1    89.7
Cc1ccc(O)cc1N(C)c1ccnc(Nc2cccc(S(N)(=O)=O)c2)n1    0
c1ccc(COc2cccc(-c3ccnc4[nH]ccc34)c2)cc1    0

# ---- query molecule ----
// COc1ccc(Nc2nccc(-c3cnn4ncccc34)n2)cc1 : inhibition at 10 µM value = 88.6

----------
- SYSTEM: panel of 203 kinases (Homo sapiens)
- Construct: purchased DiscoverX (KINOMEscan)
- MEASUREMENT PROTOCOL: KINOMEscan competitive binding, whole panel
- REPORTED CONDITIONS: 10 µM, n=1; kinase FER; read-out: Percent inhibition FER
QUANTITY KIND: inhibition at 10 µM (%)
Record the value in %, omitting the unit from your answer.

# count of solved cases: 8
Clc1ccc(Nc2ncc(-c3ccccc3)s2)cc1    0
C[C@@H](Oc1cc(-c2cnc3ccccn23)sc1C(N)=O)c1ccccc1Cl    0
CN1CCN(c2ccc(Nc3nccc(-c4cnn5ncccc45)n3)cc2C#N)CC1    0
Cc1ccc(O)cc1N(C)c1ccnc(Nc2cccc(S(N)(=O)=O)c2)n1    99.6
Nc1ncc2c(-c3ccncc3)c[nH]c2n1    0
Fc1cccc(COc2ccc(Nc3ncnc4c3CN(CCN3CCOCC3)CC4)cc2Cl)c1    0
COc1cc(Nc2nccc(-c3sc(N)nc3-c3cccc(NC(=O)c4c(F)cccc4F)c3)n2)cc(OC)c1OC    99
c1ccc(COc2cccc(-c3ccnc4[nH]ccc34)c2)cc1    0

// Cc1ccc(O)cc1Nc1ccnc(Nc2cccc(C(N)=O)c2)n1 : inhibition at 10 µM value = 95

// COc1ccc(Nc2nccc(-c3cnn4ncccc34)n2)cc1 : inhibition at 10 µM value = 74.7

----------
- SYSTEM: panel of 203 kinases (Homo sapiens, UniProt P07333)
- Construct: purchased DiscoverX (KINOMEscan)
- Sequence (P07333 20-972): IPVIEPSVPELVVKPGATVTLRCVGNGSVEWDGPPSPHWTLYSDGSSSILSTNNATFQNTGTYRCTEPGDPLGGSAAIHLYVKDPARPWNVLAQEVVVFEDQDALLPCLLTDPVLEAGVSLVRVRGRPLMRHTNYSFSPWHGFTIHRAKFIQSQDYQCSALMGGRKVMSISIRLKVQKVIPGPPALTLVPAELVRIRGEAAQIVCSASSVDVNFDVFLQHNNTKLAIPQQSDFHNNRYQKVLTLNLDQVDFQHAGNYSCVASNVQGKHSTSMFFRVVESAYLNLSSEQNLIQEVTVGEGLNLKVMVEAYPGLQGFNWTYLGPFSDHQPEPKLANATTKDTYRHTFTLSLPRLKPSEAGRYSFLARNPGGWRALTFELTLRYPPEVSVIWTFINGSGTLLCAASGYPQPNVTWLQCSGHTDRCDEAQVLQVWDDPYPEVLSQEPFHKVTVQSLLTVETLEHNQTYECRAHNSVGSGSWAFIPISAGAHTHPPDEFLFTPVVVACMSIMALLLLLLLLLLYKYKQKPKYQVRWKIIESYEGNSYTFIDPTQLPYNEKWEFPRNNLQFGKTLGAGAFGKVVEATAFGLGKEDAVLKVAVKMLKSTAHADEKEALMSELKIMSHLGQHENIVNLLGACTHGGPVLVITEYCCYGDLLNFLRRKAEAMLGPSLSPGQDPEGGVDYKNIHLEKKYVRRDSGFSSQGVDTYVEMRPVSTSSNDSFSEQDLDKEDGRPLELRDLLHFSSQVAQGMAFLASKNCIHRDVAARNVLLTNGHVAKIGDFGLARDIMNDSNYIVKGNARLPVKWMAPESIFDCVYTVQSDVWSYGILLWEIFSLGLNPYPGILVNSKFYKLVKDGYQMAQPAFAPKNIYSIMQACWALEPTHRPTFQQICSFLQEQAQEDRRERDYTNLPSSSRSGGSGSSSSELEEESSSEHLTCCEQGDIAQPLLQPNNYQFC
- MEASUREMENT PROTOCOL: KINOMEscan competitive binding, whole panel
- REPORTED CONDITIONS: 10 µM, n=1; kinase CSF1R; read-out: Percent inhibition CSF1R
QUANTITY KIND: inhibition at 10 µM (%)
Record the value in %, omitting the unit from your answer.

# count of solved cases: 4
CN1CCN(c2ccc(Nc3nccc(-c4cnn5ncccc45)n3)cc2C#N)CC1    99.4
Cc1ccc(O)cc1Nc1ccnc(Nc2cccc(C(N)=O)c2)n1    98.9
Nc1ncc2c(-c3ccncc3)c[nH]c2n1    0
Cc1ccc(O)cc1N(C)c1ccnc(Nc2cccc(S(N)(=O)=O)c2)n1    100

# ---- query compound ----
// COc1ccc(Nc2nccc(-c3cnn4ncccc34)n2)cc1 : inhibition at 10 µM value = 99.8
